tested on: OVCAR-8 ovarian; experiment: NCI-60 one-dose screen, 48 h (100 = growth as untreated, 0 = no growth, -100 = all killed); settings: 10 µM unless noted
About 83,000 compounds went through this panel and 20% of them were active in at least one assay; those are over-represented in the sample as a whole.
readoutLabel: growth (%)
Give just the numeric value; % need not be written.

Worked set:
COc1ccc2c(c1)c(-c1cc(N)n3nc(-c4cn(C)c5ccccc45)cc3n1)cn2C	-94.4
N#Cc1c(-c2ccc(Cl)cc2)nc2n[nH]c(-c3ccc(Cl)cc3)c2c1-c1cccs1	66.7
NS(=O)(=O)c1ccc(N=Nc2c(O)n(CC(=O)Nc3ccccc3)c3ccccc23)cc1	11.3
COc1ccc(CCC2c3c(cc4c(c3OC)OCO4)CCN2C)cc1 (centres undefined)	-41.7
COc1ccc(-c2ccc(SCC(=O)Nc3ccc(S(N)(=O)=O)cc3Br)nn2)cc1	48.7

## Input Endpoint output: growth of `COc1ccc2c(c1)c(-c1cc3nc(-c4cn(C)c5ncccc45)cc(N)n3n1)cn2C` . Value?
## Output -41.5

## Input Record request: growth value, item CC1=C(C(=O)c2ccccc2)C(c2cccc3ccccc23)n2c(nc3ccccc32)N1 (centres undefined)
## Output 38.3

## Input # input compound: CC1(C)CC[C@]2(C(=O)O)CC[C@]3(C)C(=CCC4[C@@]5(C)C[C@@H](O)[C@@H]6OC(c7ccc(F)cc7)OC[C@@]6(C)C5CC[C@]43C)C2C1 (some centres undefined) ; wanted: its growth
## Output 29.3

## Input Using the record for `O=C(NNc1ccccc1)n1c(=O)c2ccccc2c(=O)n1-c1ccccc1` , report its growth.
## Output 96.7
